# cell viability per entry
test system: P12-Ichikawa; assay: cell viability relative to DMSO control; higher = less cytotoxic; settings: RPMI 5 mM glucose + 10% dialyzed FBS; 48 h; 0.000781 µM
readout kind: cell viability (%)

smiles_record=CCOc1ccc(Nc2nc(-c3c(C)nc4ccccn34)cs2)cc1 unit_of_measurement=% reported_result=104
smiles_record=Cn1cc(-c2ccc3nnc(C(F)(F)c4ccc5ncccc5c4)n3n2)cn1 unit_of_measurement=% reported_result=119
smiles_record=O=C1C[C@@H](c2ccc(O)cc2)Oc2cc(O)cc(O)c21 unit_of_measurement=% reported_result=120
smiles_record=CCC(=O)OCC(=O)[C@@]1(OC(=O)CC)[C@@H](C)C[C@H]2[C@@H]3CCC4=CC(=O)C=C[C@]4(C)[C@@]3(F)[C@@H](O)C[C@@]21C unit_of_measurement=% reported_result=101
smiles_record=Cc1ncc(OC[C@@]2(c3cccc(F)c3)C[C@H]2C(=O)Nc2ccc(F)cn2)c(C)n1 unit_of_measurement=% reported_result=111

###

system: P12-Ichikawa; assay: cell viability relative to DMSO control; higher = less cytotoxic; conditions: HPLM + 10% dialyzed FBS; 48 h; 15.4 µM
Field 'label' (enum: t / f). Set to t when cell viability is strictly under 80%; else f.

compound=CN(C)C(=O)c1ccc([S+](=O)([O-])c2ccc(NC(=O)[C@@](C)(O)C(F)(F)F)c(Cl)c2)cc1 category=f
compound="CNC1[C@@H](O)C(O[C@@H]2C(O)C(O[C@H]3O[C@H]([C@@H](C)NC)CC[C@H]3N)[C@@H](N)C[C@H]2N)OC[C@]1(C)O (stereo not given in full)" category=f
compound=CCC(=O)OCC(=O)[C@@]1(OC(=O)CC)[C@@H](C)C[C@H]2[C@@H]3CCC4=CC(=O)C=C[C@]4(C)[C@@]3(F)[C@@H](O)C[C@@]21C category=t
compound=c1cc(CN2CCCNCCNCCCNCC2)ccc1CN1CCCNCCNCCCNCC1 category=f
compound=Cc1cc(Nc2nc(N[C@@H](C)c3ncc(F)cn3)ncc2Cl)n[nH]1 category=t
compound=CC(C)n1nc(-c2ccc3oc(N)nc3c2)c2c(N)ncnc21 category=t
compound=COc1cc2c(Oc3ccc(NC(=O)C4(C(=O)Nc5ccc(F)cc5)CC4)cc3F)ccnc2cc1OCCCN1CCOCC1 category=t
compound=CN1CCC(CC1)COC2=CN=C(N=C2)C3=CC(=CC=C3)CN4/N=C(\C=C/C4=O)C5=CC(=CC=C5)C#N category=f
compound=CCNC(=O)c1cc2c(-c3cc(OCCN4CCCC4)c(Cl)cc3Cl)nc(N)nc2s1 category=t
compound=C\C1=C\N([C@H]2C[C@H](N=[N+]=[N-])[C@@H](CO)O2)C(=O)NC1=O category=t
compound=CO[C@H]1C[C@@H]2CC[C@@H](C)[C@@](O)(O2)C(=O)C(=O)N2CCCC[C@H]2C(=O)O[C@H]([C@H](C)C[C@@H]2CC[C@@H](OC(=O)C(C)(CO)CO)[C@H](OC)C2)CC(=O)[C@H](C)/C=C(\C)[C@@H](O)[C@@H](OC)C(=O)[C@H](C)C[C@H](C)/C=C/C=C/C=C/1C category=f
compound="CC(=O)CC(C1=CC=CC=C1)C/2=C(O)/C3=CC=CC=C3OC2=O (stereo not given)" category=f
compound=Oc1ccc(C2CCN(c3ccnc4ccccc34)CC2)cc1O category=t

Data origin: the supplement of paper PMC11451515
